Data origin: patent US9371296B2

# tgt: human S1P1 receptor (Homo sapiens)
# Construct: membranes used
# procedure-summary: GTP γ35S binding assay for S1P1 activity
# condition-notes: 5 microgram membrane protein, test compounds 0.08 to 5,000 nM, 30 min at 25° C.
property-label: EC50 (µM)

Please review the following examples before continuing.
compound="CCCC(Cc1nnc(-c2ccc(CN3CC(C(=O)O)C3)c3ncccc23)o1)c1ccccc1 (centres unmarked)" experimental_value=0.461
compound=CCCC/C(=C\c1nnc(-c2ccc(CNCCCP(=O)(O)O)c3ncccc23)o1)c1ccccc1 experimental_value=0.0005
compound="CCCC(Cc1nnc(-c2ccc(CNCCC(=O)O)c3ncccc23)o1)c1ccccc1 (centres unmarked)" experimental_value=0.34

a. CCCCCC(Cc1nnc(-c2ccc(CNCCC(=O)O)c3ncccc23)o1)c1ccccc1 (centres unmarked)
b. CCCC(Cc1nnc(-c2ccc(CNCCCP(=O)(O)O)c3ncccc23)o1)c1ccccc1 (centres unmarked)
c. CCCCCC(Cc1nnc(-c2ccc(CN3CC(C(=O)O)C3)c3ccccc23)o1)c1ccccc1 (centres unmarked)
d. CCCC/C(=C\c1nnc(-c2ccc(CNCCCP(=O)(O)O)c3ccccc23)o1)c1ccccc1
e. CCCC/C(=C\c1nnc(-c2ccc(CN3CC(C(=O)O)C3)c3ncccc23)o1)c1ccccc1
Endpoint returns the given compounds ordered by ascending EC50. Give the labels in the order specified.
b, d, e, a, c

---

# tgt: human S1P1 receptor (Homo sapiens, UniProt P21453)
# Construct: membranes used
# Sequence (P21453 whole entry): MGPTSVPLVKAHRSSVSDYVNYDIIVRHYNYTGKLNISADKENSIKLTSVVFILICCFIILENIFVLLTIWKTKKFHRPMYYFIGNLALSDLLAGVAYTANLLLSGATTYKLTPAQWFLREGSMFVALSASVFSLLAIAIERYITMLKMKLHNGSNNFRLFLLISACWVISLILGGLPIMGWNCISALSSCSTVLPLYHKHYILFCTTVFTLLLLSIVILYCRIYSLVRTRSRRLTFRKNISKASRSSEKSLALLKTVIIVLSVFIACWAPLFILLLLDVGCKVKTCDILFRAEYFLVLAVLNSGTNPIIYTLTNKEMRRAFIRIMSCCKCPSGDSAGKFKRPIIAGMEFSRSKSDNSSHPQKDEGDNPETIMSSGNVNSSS
# procedure-summary: GTP γ35S binding assay for S1P1 activity
# condition-notes: 5 microgram membrane protein, test compounds 0.08 to 5,000 nM, 30 min at 25° C.
pEC50: −log10 of the molar value.
property-label: pEC50

compound="CCCCCC(Cc1nnc(-c2ccc(CNCCCP(=O)(O)O)c3ncccc23)o1)c1ccccc1 (stereo not shown)" tgt="human S1P1 receptor (Homo sapiens, UniProt P21453)" property_label=pEC50 experimental_value=8.54

A. CCCCCC(Cc1nnc(-c2ccc(CNCCCP(=O)(O)O)c3ccccc23)o1)c1ccccc1 (stereo not shown)
B. CCCCC(Cc1nnc(-c2ccc(CNCCC(=O)O)c3ncccc23)o1)c1ccccc1 (stereo not shown)
C. CCCC/C(=C\c1nnc(-c2ccc(CN3CC(C(=O)O)C3)c3ccccc23)o1)c1ccccc1
Sort the compounds on pEC50; start with the lowest figure. Quick reminder: the answer is the labels in the order asked.
B, C, A
(B: 6.59, C: 6.81, A: 7.85)

---

# tgt: human S1P1 receptor (Homo sapiens, UniProt P21453)
# Construct: membranes used
# procedure-summary: GTP γ35S binding assay for S1P1 activity
# condition-notes: 5 microgram membrane protein, test compounds 0.08 to 5,000 nM, 30 min at 25° C.
# Description: Compounds were synthesized and tested for S1P1 activity using the GTP γ^35S binding assay. These compounds may be assessed for their ability to activate or block activation of the human S1P1 receptor in cells stably expressing the S1P1 receptor. GTP γ^35S binding was measured in medium containing (mM) HEPES 25, pH 7.4, MgCl2 10, NaCl 100, dithiothreitol 0.5, digitonin 0.003%, 0.2 nM GTP γ^35S, and 5 microgram membrane protein in a volume of 150 microliters. […]
property-label: EC50 (nM)

molecule="CCC/C(=C\\c1nnc(-c2ccc(CNCCCP(=O)(O)O)c3ncccc23)o1)c1ccccc1 [Compound 5]" property_label=EC50 unit_string=nM experimental_value=0.61
molecule="CCC/C(=C\\c1nnc(-c2ccc(CNCCC(=O)O)c3ncccc23)o1)c1ccccc1 [Compound 6]" property_label=EC50 unit_string=nM experimental_value=150
molecule="CCCCC(Cc1nnc(-c2ccc(CN3CC(C(=O)O)C3)c3ncccc23)o1)c1ccccc1 (centres unmarked) [Compound 23]" property_label=EC50 unit_string=nM experimental_value=376

P. CCCCC(Cc1nnc(-c2ccc(CNCCCP(=O)(O)O)c3ncccc23)o1)c1ccccc1 (centres unmarked) [Compound 21]
Q. CCCCCC(Cc1nnc(-c2ccc(CNCCC(=O)O)c3ccccc23)o1)c1ccccc1 (centres unmarked) [Compound 10]
R. CCCCCC(Cc1nnc(-c2ccc(CN3CC(C(=O)O)C3)c3ncccc23)o1)c1ccccc1 (centres unmarked) [Compound 24]
S. CCCC/C(=C\c1nnc(-c2ccc(CNCCC(=O)O)c3ncccc23)o1)c1ccccc1 [Compound 8]
T. CCC/C(=C\c1nnc(-c2ccc(CNCCC(=O)O)c3ccccc23)o1)c1ccccc1 [Compound 2]
Could you please sort these 5 entries by EC50 from high to low? The response must list the labels following the requested ordering.
R, T, Q, S, P

A. CCC/C(=C\c1nnc(-c2ccc(CNCCCP(=O)(O)O)c3ccccc23)o1)c1ccccc1 [Compound 1]
B. CCC/C(=C\c1nnc(-c2ccc(CN3CC(C(=O)O)C3)c3ccccc23)o1)c1ccccc1 [Compound 13]
C. CCCC/C(=C\c1nnc(-c2ccc(CNCCC(=O)O)c3ccccc23)o1)c1ccccc1 [Compound 4]
# rank_down: sort by EC50, max first Sort and list the labels as requested.
B, C, A
(B: 607 nM, C: 85 nM, A: 27 nM)
